Listed here: items and their measured ADCP (%) at 133.3 nM, macrophages and MV-4-11 cells.
Assayed system: human LILRB4 (human, UniProt Q8NHJ6 22-448)
Protocol: cell-based or functional assay
Observable: ADCP (%) at 133.3 nM, macrophages and MV-4-11 cells

• ch36-F4-H1-D9 (antibody, V domains shown) VH: EVKLLESGGGLVQPGGSLKLSCAASGFDFSRYWMIWVRQAPEKGLEWIGEINPDSSTINYTPSLKDKFIISRDNAKNTLYLQMSKVRSEDTALYYCARPYYRYDVGYFDVWGAGTTVTVSS VL: DIVMTQAPKVLLVSAGDRVTISCKASQSVSNAVVWYQQKPGQSPKLLIFYASNRYTGVPDRFTGSGYGTDFTFSISTVQAEDLAVYFCQQDYSSPWTFGGGTKLEIK = 14.8
• ch27-G5-E9-B8 (antibody, V domains shown) VH: EVQLVESGGGLVQPGGSRKLSCAASGFTFSSFGMHWVRQAPEKGLEWVAYISSGSSTIYYADTVKGRFTISRDNPKNTLFLQMTSLRSEDTAMYYCARSTGTGAMDYWGQGTSVTVSS VL: DIQMTQTTSSLSASLGDSVTFSCRASQDISNYLNWYQQKPDGTVKLLISYTSRLHSGVPSRFSGSGSGTDYSLTISNLEQEDIATYFCQQGNALPWTFGGGTKLEIK = 14.8
• ch8-B3-F6-H8 (antibody, V domains shown) VH: EVKVIESGGGLVQPGGSLKLSCAASGFDFSRYWMSWVRQAPGKGLEWIGEINPDSSAINYTPSLKDKFIISRDNAKNTLYLQMSKVRSEDTALYYCATSMTMDYWGQGTSVTVSS VL: DIVMTQSPSSMYASLGERVTITCKASQDIKSYLSWYQQKPWKSPKTLIYYATSLADGVPSRFSGSGSGQDYSLTISSLESDDTATYYCLQHGESPYTFGGGTKLEK = 4.59
• IO-202 (antibody, V domains shown) VH: EVQLLESGGGLVQPGGSLRLSCAASGIDFSNHYYMYWVRQAPGKGLEWIGSIFSGDSASTYYADSAKGRFTISRDNSKNTLYLQMNSLRAEDTAVYYCARGMSTNDWASDLWGQGTLVTVSS VL: DIQMTQSPSSLSASVGDRVTITCQASESINSIYLAWYQQKPGKAPKLLIYRASTLASGVPSRFSGSGSGTDFTLTISSLQPEDFATYYCQQSYDWGDVENTFGGGTKVEIK = 21.8
• ch48-E11-H7-B5 (antibody, V domains shown) VH: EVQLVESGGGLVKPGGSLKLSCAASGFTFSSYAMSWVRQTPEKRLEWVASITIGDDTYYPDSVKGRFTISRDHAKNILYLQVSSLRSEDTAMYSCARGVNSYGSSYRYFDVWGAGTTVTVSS VL: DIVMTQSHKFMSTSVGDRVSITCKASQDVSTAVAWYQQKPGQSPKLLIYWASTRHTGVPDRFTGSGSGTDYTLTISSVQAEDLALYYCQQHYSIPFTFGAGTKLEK = 18
• ch7-B4-C1-C9 (antibody, V domains shown) VH: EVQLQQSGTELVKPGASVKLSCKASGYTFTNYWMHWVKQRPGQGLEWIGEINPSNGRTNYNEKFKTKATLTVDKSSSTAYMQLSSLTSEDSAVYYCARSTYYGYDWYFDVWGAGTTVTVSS VL: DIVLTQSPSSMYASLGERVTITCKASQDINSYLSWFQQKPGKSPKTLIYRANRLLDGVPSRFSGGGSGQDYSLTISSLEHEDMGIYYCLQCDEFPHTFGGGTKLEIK = 11.8
• ch10-H9-E3-G3 (antibody, V domains shown) VH: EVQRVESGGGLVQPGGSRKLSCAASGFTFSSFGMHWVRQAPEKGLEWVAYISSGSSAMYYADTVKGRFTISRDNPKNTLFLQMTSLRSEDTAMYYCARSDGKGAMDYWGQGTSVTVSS VL: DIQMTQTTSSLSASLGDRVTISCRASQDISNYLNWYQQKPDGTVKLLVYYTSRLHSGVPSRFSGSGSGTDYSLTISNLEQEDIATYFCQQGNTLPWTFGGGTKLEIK = 13.7
• ch4-E6-E4-B12 (antibody, V domains shown) VH: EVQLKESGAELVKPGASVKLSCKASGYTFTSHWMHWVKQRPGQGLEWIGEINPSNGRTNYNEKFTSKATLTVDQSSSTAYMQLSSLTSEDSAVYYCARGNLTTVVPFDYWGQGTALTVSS VL: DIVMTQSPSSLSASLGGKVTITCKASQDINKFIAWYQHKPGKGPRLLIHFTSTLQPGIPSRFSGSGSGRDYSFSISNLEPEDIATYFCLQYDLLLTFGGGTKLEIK = 14.1
• ch43-D12-F3-G11 (antibody, V domains shown) VH: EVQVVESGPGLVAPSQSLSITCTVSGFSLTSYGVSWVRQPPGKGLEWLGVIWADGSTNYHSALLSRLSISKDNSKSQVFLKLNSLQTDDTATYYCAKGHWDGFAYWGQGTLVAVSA VL: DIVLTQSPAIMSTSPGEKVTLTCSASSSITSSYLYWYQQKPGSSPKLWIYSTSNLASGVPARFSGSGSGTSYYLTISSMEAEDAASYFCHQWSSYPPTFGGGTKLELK = 18.2
• ch2-H1-D7-E5-D5 (antibody, V domains shown) VH: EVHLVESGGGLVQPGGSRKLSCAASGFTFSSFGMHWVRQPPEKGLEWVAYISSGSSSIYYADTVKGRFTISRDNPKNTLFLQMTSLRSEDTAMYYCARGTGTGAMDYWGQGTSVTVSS VL: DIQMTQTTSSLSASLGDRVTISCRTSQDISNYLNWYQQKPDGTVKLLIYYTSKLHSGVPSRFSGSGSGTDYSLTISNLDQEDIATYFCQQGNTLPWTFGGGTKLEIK = 27.9
